// data source = the supplement of paper PMC9170038

- Tested on: MS2 coat protein
- Experimental Protocol: apparent KD of MS2 coat protein; higher = weaker reporter binding
- Condition Details: Eterna round: R107; input ligand: arginine 13.2 mM
Metric Name: apparent KD of MS2 coat protein (nM)
The answer is to be given in nM; state only the numeric part.

Q: Query: apparent KD of MS2 coat protein; subject: AACAUGAGGAUCACCCAUGUUAAGUAUGAAGGAGCGUCGGAAACGACAGGUAGGUCGCAUACUUGGCCUUGUACUUCGUGUGUCU [#02 Exclusion - Arginine A]
A: 14.2

Q: Try ACGUCAUGGAGAACGUGACGACUUAUCGAUACCAGCGAUUGAGAGCGCCCUUGGCAGCGAACAUGAGGAUCACCCAUGUCAAGGG [Same State - Theophylline A] next.
A: 29.1

Q: And for UUUGUAAUUGUCUGGUAGAUUUAUUUAUUUCGAGGACCGGUACGGCCGCCACUCGUUAAUUACAUGAGGAUCACCCAUGUUAGCU [JR_ExcTryptoA_Sub008] ?
A: 14.1

Q: Follow-up entry: UGACGAUACCUGGAUACCAGCGACAUGAGGAUCACCCAUGUAUGAGGAUCAGCCAUGUUAUGCCCUUGGCAGCCACGAAAGUCUU [UUUMULLIN]
A: 37.5

Q: Record: ACGUGCAGCAGAAGGAGCGUCUUAAUUCUACAUGAGGAUCACCCAUGUUUACAUUGGAUAUGACAGGUAGGUCGCUGAAGUACGA [#05 Same State - Arginine B]
A: 36.2

Q: What do you get for UCACAUGAGGAUCACCCAUGUACAGGCGAUACCAGCCGUACAUUGGGCCCUUGGCAGCGCACCGAGACCUUUAUAAGCACCUCGG [Zaoranorre] ?
A: 67
